System: A549
procedure-summary: Cytotoxicity against human A549 cells assessed as reduction in cell viability incubated for 72 hrs by MTT assay
Assay type: functional, cell-based
experimental-parameters: A549, 72 h
Threshold check on IC50: strictly below 10 µM is fulfilled; on or above 10 µM is not fulfilled.

compound | class-name
CNC(=O)c1cc(Oc2ccc(C3=NNC(c4ccc(Cl)cc4Cl)C3)cc2)ccn1 (stereo unspecified) | fulfilled
CNC(=O)c1cc(Oc2ccc(C3=NNC(c4ccc(OC)cc4)C3)cc2)ccn1 (stereo unspecified) | not fulfilled
CNC(=O)c1cc(Oc2ccc(C3=NNC(c4ccc(Br)cc4)C3)cc2)ccn1 (stereo unspecified) | not fulfilled
CNC(=O)c1cc(Oc2ccc(C3=NNC(c4ccc(C#N)cc4)C3)cc2)ccn1 (stereo unspecified) | not fulfilled
CNC(=O)c1cc(Oc2ccc(C3CC(c4ccc(Cl)cc4)=NN3)cc2)ccn1 (stereo unspecified) | not fulfilled

Task: Report whether reported IC50 is lower than 10 µM (strictly) for CNC(=O)c1cc(Oc2ccc(C3=NNC(c4ccc(Cl)c(Cl)c4)C3)cc2)ccn1 (stereo unspecified)
Output: not fulfilled

Task: Cool, now CNC(=O)c1cc(Oc2ccc(C3=NNC(c4ccc([N+](=O)[O-])cc4)C3)cc2)ccn1 (stereo unspecified)
Output: not fulfilled

Task: Queued: CNC(=O)c1cc(Oc2ccc(C3=NNC(c4ccc(F)cc4)C3)cc2)ccn1 (stereo unspecified)
Output: not fulfilled

Task: Lookup CNC(=O)c1cc(Oc2ccc(C3=NNC(c4cccc(Br)c4)C3)cc2)ccn1 (stereo unspecified)
Output: fulfilled

Task: Input CNC(=O)c1cc(Oc2ccc(C3=NN(C(N)=S)C(c4ccc(C#N)cc4)C3)cc2)ccn1 (stereo unspecified)
Output: not fulfilled

Task: Can you check CNC(=O)c1cc(Oc2ccc(C3=NN(C(N)=S)C(c4cccc([N+](=O)[O-])c4)C3)cc2)ccn1 (stereo unspecified) next?
Output: not fulfilled

Task: Queued: CNC(=O)c1cc(Oc2ccc(C3=NNC(c4ccc(OC)c(OC)c4OC)C3)cc2)ccn1 (stereo unspecified)
Output: not fulfilled

Task: Would you kindly repeat that for CNC(=O)c1cc(Oc2ccc(C3=NNC(c4cccc(Cl)c4Cl)C3)cc2)ccn1 (stereo unspecified) ?
Output: not fulfilled

Task: Request: CNC(=O)c1cc(Oc2ccc(C3=NN(C(N)=S)C(c4cccc(Cl)c4Cl)C3)cc2)ccn1 (stereo unspecified)
Output: not fulfilled

Task: What do we get for CNC(=O)c1cc(Oc2ccc(C3=NN(C(N)=S)C(c4ccc(Cl)cc4)C3)cc2)ccn1 (stereo unspecified) ?
Output: not fulfilled

Task: Another compound: `CNC(=O)c1cc(Oc2ccc(NC(=O)Nc3ccc(Cl)c(C(F)(F)F)c3)cc2)ccn1`
Output: fulfilled

Task: Would you mind doing CNC(=O)c1cc(Oc2ccc(C3=NN(C(N)=S)C(c4ccc(F)cc4)C3)cc2)ccn1 (stereo unspecified) as well?
Output: not fulfilled

Task: Request: CNC(=O)c1cc(Oc2ccc(C3CC(c4ccc([N+](=O)[O-])cc4)=NN3C(N)=S)cc2)ccn1 (stereo unspecified)
Output: not fulfilled

Task: And then CNC(=O)c1cc(Oc2ccc(C3=NNC(c4ccc(F)cc4Cl)C3)cc2)ccn1 (stereo unspecified) , what is it?
Output: not fulfilled

Task: And CNC(=O)c1cc(Oc2ccc(C3=NNC(c4cc(OC)c(OC)c(OC)c4)C3)cc2)ccn1 (stereo unspecified) ?
Output: not fulfilled

Task: Would you kindly repeat that for CNC(=O)c1cc(Oc2ccc(C3=NNC(c4ccccc4)C3)cc2)ccn1 (stereo unspecified) ?
Output: fulfilled
